Target: SARS-COV-2 RBD-MMH (SARS-CoV-2)
Assay: SPR 37C, run with dissociation at pH 5.0
PROPERTY LABEL: t½
I'd appreciate it if you included the unit after the number.

Task item: Which t½ value is on record for mAb15165 (antibody, V domains shown) VH: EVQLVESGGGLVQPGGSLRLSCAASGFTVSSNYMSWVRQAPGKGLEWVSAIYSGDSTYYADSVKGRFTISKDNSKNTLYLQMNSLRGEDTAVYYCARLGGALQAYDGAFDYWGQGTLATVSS VL: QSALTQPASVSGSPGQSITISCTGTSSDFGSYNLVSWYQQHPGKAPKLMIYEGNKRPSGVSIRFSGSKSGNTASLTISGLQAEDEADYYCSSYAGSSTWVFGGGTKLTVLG ?
Reply: 11.9 min
